# assayed.target: Interstitial collagenase (Homo sapiens, UniProt P03956)
# Sequence (P03956 whole entry): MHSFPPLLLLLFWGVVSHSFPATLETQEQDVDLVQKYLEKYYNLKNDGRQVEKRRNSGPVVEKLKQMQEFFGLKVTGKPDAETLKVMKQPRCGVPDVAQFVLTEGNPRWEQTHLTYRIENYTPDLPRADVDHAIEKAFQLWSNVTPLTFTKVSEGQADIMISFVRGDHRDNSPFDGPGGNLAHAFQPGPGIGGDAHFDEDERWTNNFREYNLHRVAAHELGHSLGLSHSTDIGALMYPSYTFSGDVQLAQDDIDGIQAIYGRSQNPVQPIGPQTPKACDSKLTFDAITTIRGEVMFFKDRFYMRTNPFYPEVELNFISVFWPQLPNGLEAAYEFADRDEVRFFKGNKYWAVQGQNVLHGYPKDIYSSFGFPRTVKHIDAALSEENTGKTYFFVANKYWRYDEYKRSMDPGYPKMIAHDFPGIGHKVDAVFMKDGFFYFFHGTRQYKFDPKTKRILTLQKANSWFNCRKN
# condition: read-out: log(1/IC50) (converted)
// NB: equality with 0.3 µM counts as label 0; only IC50 strictly below is label 1

Observe how each entry below is paired with its result.
compound="C[C@@]1(O)CCCN(S(=O)(=O)c2ccc(OCc3ccnc4ccccc34)cc2)C1C(=O)NO (stereo partly drawn)" label="label 1"
compound="CNC(=O)[C@@H](Cc1ccc(OC)cc1)NC(=O)C(CC(C)C)CP(=O)(O)Cc1ccccc1 (stereo partly drawn)" label="label 0"
compound="C[C@@]1(O)CCCN(S(=O)(=O)c2ccc(OCc3ccc(F)cc3Cl)cc2)C1C(=O)NO (stereo partly drawn)" label="label 0"
compound="C[C@@]1(O)CCCN(S(=O)(=O)c2ccc(OCc3ccncc3)cc2)C1C(=O)NO (stereo partly drawn)" label="label 1"
compound="CNC(=O)[C@@H](Cc1ccc(OC)cc1)NC(=O)C(CC(C)C)CP(=O)(O)Cc1ccc(Cc2ccccc2)cc1 (stereo partly drawn)" label="label 1"
compound="C[C@@]1(O)CCCN(S(=O)(=O)c2ccc(OCc3cccc(Cl)c3)cc2)C1C(=O)NO (stereo partly drawn)" label="label 0"
compound="CC(N)P(=O)(O)CC(CSCc1ccccc1)C(=O)NC(Cc1c[nH]c2ccccc12)C(N)=O (stereo not drawn)" label="label 1"
compound="CCCC(CP(=O)(O)Cc1ccc(Cc2ccccc2)cc1)C(=O)N[C@H](C(=O)NC)C(C)(C)C (stereo partly drawn)" label="label 0"

QUERY: In plain terms, does C[C@@]1(O)CCCN(S(=O)(=O)c2ccc(OCc3ccnc(Cl)c3)cc2)C1C(=O)NO (stereo partly drawn) come in under 0.3 µM for IC50?
RESULT: label 0

QUERY: Does the reported IC50 of the following compound sit strictly below 0.3 µM? CNC(=O)[C@@H](Cc1ccc(OC)cc1)NC(=O)C(CC(C)C)CP(=O)(O)Cc1ccc(-c2ccccc2)cc1 (stereo partly drawn)
RESULT: label 0

QUERY: Could you please tell me whether IC50 recorded for CC(N)P(=O)(O)CC(Cc1ccccc1)C(=O)NC(Cc1c[nH]c2ccccc12)C(N)=O (stereo not drawn) is less than 0.3 µM?
RESULT: label 1

QUERY: Does CC(N)P(=O)(O)CC(CCCc1ccccc1)C(=O)NC(Cc1c[nH]c2ccccc12)C(N)=O (stereo not drawn) have IC50 strictly under 0.3 µM?
RESULT: label 1

QUERY: # check: IC50 < 0.3 µM for CNC(=O)[C@@H](Cc1ccc(OC)cc1)NC(=O)C(CC(C)C)CP(=O)(O)Cc1ccc(Oc2ccccc2)cc1 (stereo partly drawn)
RESULT: label 0

QUERY: Field: below-cutoff. Rule: recorded IC50 strictly less than 0.3 µM. Subject: CNC(=O)[C@@H](Cc1ccc(OC)cc1)NC(=O)C(CC(C)C)CP(=O)(O)Cc1ccc(S(=O)(=O)c2ccccc2)cc1 (stereo partly drawn)
RESULT: label 0

These entries and their values trace back to ChEMBL document CHEMBL1140610.
